Give measured IC50 for each item. Keep answers brief.
# TEST TARGET: T1, recombinant hAng-2 (recombinant protein with His tag attached to human Ang-2; R&D Systems) (human, UniProt O15123 19-496)
# T1 construct: also called angiopoietin-2; ANGPT2
# T1 sequence (looked up): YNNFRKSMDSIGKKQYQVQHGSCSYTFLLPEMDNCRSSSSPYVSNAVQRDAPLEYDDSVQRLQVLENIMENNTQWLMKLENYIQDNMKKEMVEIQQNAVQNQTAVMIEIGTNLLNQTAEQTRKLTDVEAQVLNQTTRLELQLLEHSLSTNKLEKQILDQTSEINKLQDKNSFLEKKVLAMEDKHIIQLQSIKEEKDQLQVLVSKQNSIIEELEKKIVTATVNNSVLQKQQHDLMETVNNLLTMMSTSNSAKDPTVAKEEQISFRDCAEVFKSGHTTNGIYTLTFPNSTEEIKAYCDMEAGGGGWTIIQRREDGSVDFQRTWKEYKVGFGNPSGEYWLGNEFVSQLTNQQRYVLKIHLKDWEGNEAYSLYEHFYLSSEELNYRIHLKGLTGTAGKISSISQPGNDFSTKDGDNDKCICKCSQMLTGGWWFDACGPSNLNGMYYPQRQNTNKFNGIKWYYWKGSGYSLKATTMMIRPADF
# EXPERIMENTAL PROTOCOL: competitive ELISA; synergibody titrated with 1 nM hAng-2 (His) on coated hTie2-Fc
Give bare numbers, in nM.

Worked set:
[
  {
    "BINDER": "Syn-Ang-VEGFR-12 (other, Chimeric (human IgG1) SAITAng-2-3 with the peptide at the C-terminus of the heavy chain; also called SAITAng-2-3 x DTN8VEGFR-2-2; not shown: human IgG1 heavy chain constant region with Fc region, from the vector; human light chain constant region, printed as 'constant region of human IgG1') heavy (part 1 of 2): DVQLVESGGGLVQPGGSRKLSCAASGFTFSSFGMHWVRQAPEKGLEWVAYISSDSSTIYYADTVKGRFTISRDNPKNTLFLQMTSLRSEDTAMYYCAREGGYDDYYAMDYWGQGTSVTVSS heavy (part 2 of 2): EAGKETCGYEWQYCPRP light: DIQMTQSPASQSASLGESVTITCLASQTIGTWLAWYQQKPGKSPQLLIYAATSLADGVPSRFSGSGSGTKFSFKISSLQAEDFVSYYCQQLYSIPLTFGGGTKLEIK",
    "METRIC NAME": "IC50",
    "UNITS": "nM",
    "NUMERIC READOUT": 0.833
  },
  {
    "BINDER": "Syn-Ang-VEGFR-13 (other, Chimeric (human IgG1) SAITAng-2-3 with the peptide at the C-terminus of the heavy chain; also called SAITAng-2-3 x DTN9VEGFR-2-3; not shown: human IgG1 heavy chain constant region with Fc region, from the vector; human light chain constant region, printed as 'constant region of human IgG1') heavy (part 1 of 2): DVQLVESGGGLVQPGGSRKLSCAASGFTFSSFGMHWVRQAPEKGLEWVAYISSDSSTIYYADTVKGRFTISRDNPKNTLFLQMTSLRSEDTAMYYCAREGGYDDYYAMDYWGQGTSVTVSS heavy (part 2 of 2): EAGAYWCKAWGLSPCLVT light: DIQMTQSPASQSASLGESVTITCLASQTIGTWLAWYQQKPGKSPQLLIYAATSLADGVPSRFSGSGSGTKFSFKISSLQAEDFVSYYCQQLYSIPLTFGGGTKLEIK",
    "METRIC NAME": "IC50",
    "UNITS": "nM",
    "NUMERIC READOUT": 0.903
  },
  {
    "BINDER": "Syn-Ang-VEGFR-20 (other, Chimeric (human IgG1) SAITAng-2-4 with the peptide at the C-terminus of the heavy chain; also called SAITAng-2-4 x DTN11VEGFR-2-5; not shown: human IgG1 heavy chain constant region with Fc region, from the vector; human light chain constant region, printed as 'constant region of human IgG1') heavy (part 1 of 2): QVQLQQSGAELARPGASVKLSCKASGYTFTDYYINWAKQRTGQGLEWIGEIYPGSGDTYYNEKFKGKATLTADKSSSTAYMQLSSLTSEDSAVYFCARYGYKGVYFDYWGQSTTLTVSS heavy (part 2 of 2): PGSQGYCHLNMRYQWICDSE light: ENVLTQSPAIMAASLGQKVTMTCSASSSVSSSYLHWYQQKSGASPKPLIHRTSNLASGVPARFSGSGSGTSYSLTISSVEAEDDATYYCQQWSGYPFTFGAGTKLELK",
    "METRIC NAME": "IC50",
    "UNITS": "nM",
    "NUMERIC READOUT": 1.35
  },
  {
    "BINDER": "Syn-Ang-VEGFR-10 (other, Chimeric (human IgG1) SAITAng-2-2 with the peptide at the C-terminus of the heavy chain; also called SAITAng-2-2 x DTN11VEGFR-2-5; not shown: human IgG1 heavy chain constant region with Fc region, from the vector; human light chain constant region, printed as 'constant region of human IgG1') heavy (part 1 of 2): QVQLQQSGPELVKPGASVKMSCKASGYTFTDYVISWVKQRTGQGLEWIGEIYPGSGSTYYNEKFKGKASLTADKSSNTAYMQLSSLTSADSAVYFCVRSRGDYYAMDYWGQGTSVTVSS heavy (part 2 of 2): PGSQGYCHLNMRYQWICDSE light: DIQMTQSPSSLSASLGGKVTITCKASQDINNYITWYQHKPGKGPRLLIHYTSTLQPGIPSRFSGSGSGRDYSFSISNLEPEDIATYYCLQYDNLLTFGGGTKLEIK",
    "METRIC NAME": "IC50",
    "UNITS": "nM",
    "NUMERIC READOUT": 2
  }
]

Let us move to another entry and its IC50.
// query Indicate its recorded IC50; the binder in question is Syn-Ang-VEGFR-15 (other, Chimeric (human IgG1) SAITAng-2-3 with the peptide at the C-terminus of the heavy chain; also called SAITAng-2-3 x DTN11VEGFR-2-5; not shown: human IgG1 heavy chain constant region with Fc region, from the vector; human light chain constant region, printed as 'constant region of human IgG1') heavy (part 1 of 2): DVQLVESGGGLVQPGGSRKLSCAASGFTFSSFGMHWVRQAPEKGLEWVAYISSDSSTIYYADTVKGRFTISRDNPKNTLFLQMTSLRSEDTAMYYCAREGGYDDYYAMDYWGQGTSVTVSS heavy (part 2 of 2): PGSQGYCHLNMRYQWICDSE light: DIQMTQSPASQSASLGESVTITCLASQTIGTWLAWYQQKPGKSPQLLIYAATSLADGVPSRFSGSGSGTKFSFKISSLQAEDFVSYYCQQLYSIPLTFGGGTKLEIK
// result 0.925
